# system-under-test: T1, recombinant MS4A4A soluble polypeptide JS5
# T1 construct: also called JS5.His
# method: ELISA, 0.11 ug/ml antibody
readout-name: ELISA OD
Format: numeric value only, no unit, no commentary.

Consider the following illustrative entries.
| binder | ELISA OD |
| --- | --- |
| anti-MS4A4A antibody 4A-353 (antibody, V domains shown, full human IgG) VH: QVQLVQSGSELKKPGASVKVSCKASGYIFTSYGLSWVRQAPGQGLEWMGWINTYSGVPTYAQGFTGRFVFSLDTSVSTAYLQISSLKAEDTAVYYCARTLADYWGQGTLVTVSS VL: DVVMTQSPLSLPVTLGQPASISCKSSRSLLYSEGKTYLSWFQQRPGQSPRRLIYLVSKLDSGVPDRFSGSGSGTDFTLKISRVEAEDVGVYYCWQGIDFHQTFGGGTKVEIK | 0.63 |
| anti-MS4A4A antibody 4A-381 (antibody, V domains shown) VH: QVQLVQSGSELKKPGASVKVSCKASGYIFTSYGLSWVRQAPGQGLEWMGWINTYSGVPTYAQGFTGRFVFSLDTSVSTAYLQISSLKAEDTAVYYCARSMADYWGQGTLVTVSS VL: DVVMTQSPLSLPVTLGQPASISCKSSRSLLYSQGKTYLSWFQQRPGQSPRRLIYLVSKLDSGVPDRFSGSGSGTDFTLKISRVEAEDVGVYYCWQGIDFHQTFGGGTKVEIK | 0.685 |

Then there is this binder:
In: Recorded ELISA OD for anti-MS4A4A antibody 4A-354 (antibody, V domains shown, full human IgG) VH: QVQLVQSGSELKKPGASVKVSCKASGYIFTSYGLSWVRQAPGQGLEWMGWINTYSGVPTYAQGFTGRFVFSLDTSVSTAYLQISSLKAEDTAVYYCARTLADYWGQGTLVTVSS VL: DVVMTQSPLSLPVTLGQPASISCKSSRSLLYSAGKTYLSWFQQRPGQSPRRLIYLVSKLDSGVPDRFSGSGSGTDFTLKISRVEAEDVGVYYCWQGIDFHQTFGGGTKVEIK , please?
Out: 0.701

Data provenance: patent US20210079074A1
